biological target: UniProt:P15056; assay: Raf kinase assay (B-Raf), [33P] incorporation into MEK1(K97R); assay type: biochemical; conditions: 1.0 μM compound; read-out: B-Raf inhibition at 1.0 μM
Sequence (P15056 whole entry): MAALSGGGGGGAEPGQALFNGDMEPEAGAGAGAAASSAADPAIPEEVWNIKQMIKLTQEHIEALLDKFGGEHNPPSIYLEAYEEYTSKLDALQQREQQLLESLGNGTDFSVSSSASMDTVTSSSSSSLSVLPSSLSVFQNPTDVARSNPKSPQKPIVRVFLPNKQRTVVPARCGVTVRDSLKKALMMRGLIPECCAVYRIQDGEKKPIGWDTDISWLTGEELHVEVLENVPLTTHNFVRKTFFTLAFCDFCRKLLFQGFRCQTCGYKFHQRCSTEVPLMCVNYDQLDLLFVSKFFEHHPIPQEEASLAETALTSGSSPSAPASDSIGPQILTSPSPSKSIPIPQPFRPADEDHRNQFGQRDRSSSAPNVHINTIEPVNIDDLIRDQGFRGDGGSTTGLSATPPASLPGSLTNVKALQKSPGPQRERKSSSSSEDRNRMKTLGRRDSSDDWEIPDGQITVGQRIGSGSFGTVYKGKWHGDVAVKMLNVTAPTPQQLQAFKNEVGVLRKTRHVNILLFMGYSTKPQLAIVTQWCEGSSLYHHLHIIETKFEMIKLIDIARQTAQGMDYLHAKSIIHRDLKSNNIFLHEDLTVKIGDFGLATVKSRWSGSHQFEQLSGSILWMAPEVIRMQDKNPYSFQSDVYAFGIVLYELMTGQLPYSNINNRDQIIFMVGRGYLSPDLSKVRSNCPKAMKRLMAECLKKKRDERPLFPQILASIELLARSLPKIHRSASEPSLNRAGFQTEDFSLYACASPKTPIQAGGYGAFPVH
Assign rule met whenever inhibition at 1 µM does not fall below 80%; assign rule not met whenever it does.

Exam item: decide whether the reported inhibition at 1 µM for COc1cc(-c2ccc3ncnc(Nc4cc(O)c(F)cc4F)c3c2)ccc1O [Compound 158] is at least 80%.
rule met

Exam item: decide whether the reported inhibition at 1 µM for NS(=O)(=O)c1ccc(-c2ccc3ncnc(Nc4cccc5[nH]ncc45)c3c2)cc1 [Compound 107] is at least 80%.
rule not met

Exam item: decide whether the reported inhibition at 1 µM for Oc1cccc(Nc2ncnc3ccc(-c4ccccc4)cc23)c1 [Compound 133, 3-(6-phenylquinazolin-4-ylamino)phenol] is at least 80%.
rule met

Exam item: decide whether the reported inhibition at 1 µM for NC(=O)Nc1ccc(-c2ccc3ncnc(Nc4ccccc4)c3c2)cc1 [Compound 11] is at least 80%.
rule not met

Exam item: decide whether the reported inhibition at 1 µM for COc1cc(-c2ccc3ncnc(Nc4cccc(NS(=O)(=O)C(F)(F)F)c4)c3c2)ccc1O [Compound 65] is at least 80%.
rule not met

Exam item: decide whether the reported inhibition at 1 µM for CCCS(=O)(=O)Nc1cccc(-c2ccc3nccc(Nc4cccc5[nH]ncc45)c3c2)c1 [Compound 122] is at least 80%.
rule not met

Exam item: decide whether the reported inhibition at 1 µM for COc1cc(-c2ccc3ncnc(Nc4cccc(NC(C)=O)c4)c3c2)ccc1O [Compound 44] is at least 80%.
rule not met

Exam item: decide whether the reported inhibition at 1 µM for COc1cc(-c2ccc3ncnc(Nc4cccc(O)c4C)c3c2)ccc1O [Compound 53] is at least 80%.
rule met

Exam item: decide whether the reported inhibition at 1 µM for COc1cccc(-c2ccc3nccc(Nc4cccc5[nH]ncc45)c3c2)c1F [Compound 111] is at least 80%.
rule met

Exam item: decide whether the reported inhibition at 1 µM for N#Cc1cccc(-c2ccc3ncnc(Nc4cccc5[nH]ncc45)c3c2)c1 [Compound 102] is at least 80%.
rule met

Exam item: decide whether the reported inhibition at 1 µM for COc1ccc(-c2ccc3nccc(Nc4cccc5[nH]ncc45)c3c2)cc1Cl [Compound 115] is at least 80%.
rule not met

Exam item: decide whether the reported inhibition at 1 µM for COc1cc(-c2ccc3ncnc(Nc4ccc(Cl)c(NS(C)(=O)=O)c4)c3c2)ccc1O [Compound 140] is at least 80%.
rule not met

Exam item: decide whether the reported inhibition at 1 µM for COc1cc(-c2ccc3ncnc(Nc4ccc(F)c(Cl)c4)c3c2)ccc1O [Compound 14] is at least 80%.
rule not met

Exam item: decide whether the reported inhibition at 1 µM for c1cc(Nc2ncnc3ccc(-c4ccc5c(c4)OCO5)cc23)c2cn[nH]c2c1 [Compound 96] is at least 80%.
rule met

Exam item: decide whether the reported inhibition at 1 µM for COc1cc(-c2ccc3ncnc(Nc4cc(O)ccc4Cl)c3c2)ccc1O [Compound 59] is at least 80%.
rule met

Exam item: decide whether the reported inhibition at 1 µM for COc1ccc(C(=O)O)c(Nc2ncnc3ccc(-c4ccc(O)c(OC)c4)cc23)c1 [Compound 48] is at least 80%.
rule not met

Exam item: decide whether the reported inhibition at 1 µM for COc1cccc(-c2ccc3ncnc(Nc4cccc5[nH]ncc45)c3c2)c1OC [Compound 105] is at least 80%.
rule not met

Exam item: decide whether the reported inhibition at 1 µM for COc1cc(-c2ccc3ncnc(Nc4ccc(Cl)cc4F)c3c2)ccc1O [Compound 16] is at least 80%.
rule not met

Exam item: decide whether the reported inhibition at 1 µM for Nc1ccc(-c2ccc3nccc(Nc4cccc5[nH]ncc45)c3c2)cc1 [Compound 121] is at least 80%.
rule not met

Exam item: decide whether the reported inhibition at 1 µM for COc1cc(-c2ccc3ncnc(Nc4cccc5[nH]ncc45)c3c2)ccc1O [Compound 51] is at least 80%.
rule met

Exam item: decide whether the reported inhibition at 1 µM for COc1cc(-c2ccc3ncnc(Nc4cc(O)ccc4OC)c3c2)ccc1O [Compound 55] is at least 80%.
rule not met

Exam item: decide whether the reported inhibition at 1 µM for Fc1ccccc1-c1ccc2ncnc(Nc3cccc4[nH]ncc34)c2c1 [Compound 91] is at least 80%.
rule met

Exam item: decide whether the reported inhibition at 1 µM for COc1cc(-c2ccc3ncnc(Nc4ccccc4C(N)=O)c3c2)ccc1O [Compound 33] is at least 80%.
rule not met

Exam item: decide whether the reported inhibition at 1 µM for COc1cc(-c2ccc3nccc(Nc4cc(NS(C)(=O)=O)ccc4F)c3c2)ccc1O [Compound 128] is at least 80%.
rule not met

Exam item: decide whether the reported inhibition at 1 µM for COc1cc(-c2ccc3nccc(Nc4ccc(F)c(NS(C)(=O)=O)c4)c3c2)ccc1O [Compound 145] is at least 80%.
rule not met

Exam item: decide whether the reported inhibition at 1 µM for COc1cc(-c2ccc3ncnc(Nc4cccc(NC(=O)C(F)(F)F)c4)c3c2)ccc1O [Compound 45] is at least 80%.
rule not met

Exam item: decide whether the reported inhibition at 1 µM for COc1cc(-c2ccc3ncnc(Nc4cccc(C(=O)O)c4)c3c2)ccc1O [Compound 32] is at least 80%.
rule not met

Exam item: decide whether the reported inhibition at 1 µM for COc1cccc(Nc2ncnc3ccc(-c4ccc(O)c(OC)c4)cc23)c1 [Compound 22] is at least 80%.
rule not met

Exam item: decide whether the reported inhibition at 1 µM for COc1cc(-c2ccc3ncnc(Nc4cccc(F)c4)c3c2)ccc1O [Compound 52] is at least 80%.
rule not met

Exam item: decide whether the reported inhibition at 1 µM for COc1cc(-c2ccc3ncnc(Nc4cccc5[nH]c(=O)[nH]c45)c3c2)ccc1O [Compound 127] is at least 80%.
rule not met

Exam item: decide whether the reported inhibition at 1 µM for CC(=O)Nc1ccc(-c2ccc3ncnc(Nc4cccc5[nH]ncc45)c3c2)cc1 [Compound 71] is at least 80%.
rule not met

Exam item: decide whether the reported inhibition at 1 µM for COc1cc(-c2ccc3ncnc(Nc4cccc5[nH]nc(Cl)c45)c3c2)ccc1O [Compound 126] is at least 80%.
rule met

Exam item: decide whether the reported inhibition at 1 µM for COc1ccc(-c2ccc3ncnc(Nc4cccc5[nH]ncc45)c3c2)cc1Cl [Compound 76] is at least 80%.
rule met
